Target: B1R receptor of the rat (CHO K1 cells stably transfected with the B1R gene of the rat) (Rattus norvegicus, UniProt P97583)
Construct: expressed in transfected cells; host or cells: CHO K1 cells (Chinese hamster ovary), stably transfected
Sequence (P97583 whole entry): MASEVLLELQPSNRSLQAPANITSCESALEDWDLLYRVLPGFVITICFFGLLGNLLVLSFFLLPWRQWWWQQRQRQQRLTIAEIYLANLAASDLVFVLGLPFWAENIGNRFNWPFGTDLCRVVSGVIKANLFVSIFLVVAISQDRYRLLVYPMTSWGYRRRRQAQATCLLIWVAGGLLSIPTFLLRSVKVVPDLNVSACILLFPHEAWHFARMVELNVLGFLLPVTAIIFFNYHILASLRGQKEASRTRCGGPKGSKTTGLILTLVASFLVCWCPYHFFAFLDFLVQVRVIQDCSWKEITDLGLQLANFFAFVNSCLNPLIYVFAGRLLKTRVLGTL
Experiment: Functional study on the bradykinin receptor 1 (B1R), Ca2+ fluorescence (Fluo-4) FLIPR/Novostar assay, rB1R cells
Format: cell-based
Conditions: CHO-K1, 10 μM, read-out: % inhibition (rat B1R) at 10 μM
measurement_name: inhibition at 10 µM (%)

molecule: CN(C(=O)c1ccc2c(c1)[C@H](N(C)C(=O)c1ccccc1Cl)CC2)C1CCN(c2ccncn2)CC1
measurement_name: inhibition at 10 µM
test_result: 99
//
molecule: CN(C(=O)c1ccc2c(c1)[C@H](NC(=O)c1cccc(F)c1Cl)CC2)C1CCN(c2ccncn2)CC1
measurement_name: inhibition at 10 µM
test_result: 105
//
molecule: CN(CC1CCN(c2ccncn2)CC1)C(=O)c1ccc2c(c1)[C@H](NC(=O)c1ccccc1Cl)CC2
measurement_name: inhibition at 10 µM
test_result: 107
//
molecule: Cc1cc(N2CCC(N(C)C(=O)c3ccc4c(c3)[C@H](NC(=O)C3CCOCC3)CC4)CC2)nc(C)n1
measurement_name: inhibition at 10 µM
test_result: 89
//
molecule: CN(C(=O)c1ccc2c(c1)[C@H](NC(=O)c1ccccc1Cl)CC2)C1CCC(N2CCc3cnccc3C2)CC1 (stereo partly shown)
measurement_name: inhibition at 10 µM
test_result: 104
//
molecule: CN(C(=O)c1ccc2c(c1)CC[C@H]2N1Cc2cccc(Cl)c2C1=O)C1CCN(c2ccncc2)CC1
measurement_name: inhibition at 10 µM
test_result: 49
//
molecule: CN1CCN([C@@H]2CCC[C@H](N(C)C(=O)c3ccc4c(c3)CC[C@H]4N3Cc4cccc(Cl)c4C3=O)C2)CC1
measurement_name: inhibition at 10 µM
test_result: 10
//
molecule: CCN(C(=O)c1ccc2c(c1)[C@H](NC(=O)c1ccccc1Cl)CC2)C1CCN(c2ccnc(C)c2)CC1
measurement_name: inhibition at 10 µM
test_result: 110
//
molecule: CN(C(=O)c1ccc2c(c1)[C@H](NC(=O)c1ccccc1Cl)CC2)C1CCN(Cc2ccnc(N3CCCC3)c2)CC1
measurement_name: inhibition at 10 µM
test_result: 75
//
molecule: CN(C(=O)c1ccc2c(c1)[C@H](NC(=O)Cc1ccccc1)CC2)C1CCN(c2ccncc2)CC1
measurement_name: inhibition at 10 µM
test_result: 96
//
molecule: CC(C)N(C(=O)c1ccccc1Cl)[C@@H]1CCc2cc(F)c(C(=O)N(C)C3CCN(c4ccncc4)CC3)cc21
measurement_name: inhibition at 10 µM
test_result: 104
//
molecule: CN(C(=O)c1ccc2c(c1)[C@H](NC(=O)c1cccnc1C(F)(F)F)CC2)C1CCN(c2ccncc2)CC1
measurement_name: inhibition at 10 µM
test_result: 107
//
molecule: CN(C(=O)c1ccc2c(c1)[C@H](NC(=O)c1ccccc1Cl)CC2)C1CCN(c2ccccn2)CC1
measurement_name: inhibition at 10 µM
test_result: 93
//
molecule: CN(C(=O)c1ccc2c(c1)[C@H](NC(=O)c1ccccc1Cl)CC2)C1CCN(c2ccncc2)C1 (stereo partly shown)
measurement_name: inhibition at 10 µM
test_result: 100
//
molecule: Cc1nccc(N2CCC(N(C)C(=O)c3ccc4c(c3)[C@H](NC(=O)c3ccccc3Cl)CC4)CC2)n1
measurement_name: inhibition at 10 µM
test_result: 103
//
molecule: CN(C(=O)c1ccc2c(c1)[C@H](NC(=O)[C@H]1CCCc3ccccc31)CC2)C1CCN(c2ccncc2)CC1
measurement_name: inhibition at 10 µM
test_result: 99
//
molecule: O=C(N[C@@H]1CCc2ccc(C(=O)N(C3CC3)C3CCN(c4ccncc4)CC3)cc21)c1ccccc1Cl
measurement_name: inhibition at 10 µM
test_result: 103
//
molecule: CN(C)c1cc(N2CCC(N(C)C(=O)c3ccc4c(c3)[C@H](N(C)C(=O)CCC3CCCC3)CC4)CC2)ccn1
measurement_name: inhibition at 10 µM
test_result: 105
//
molecule: Cc1cc(N2CCC(N(C)C(=O)c3ccc4c(c3)[C@H](NC(=O)c3ccccc3Cl)CC4)CC2)ccn1
measurement_name: inhibition at 10 µM
test_result: 104
//
molecule: CN(C(=O)c1ccc2c(c1)[C@H](NC(=O)c1ccccc1Cl)CC2)C1CCN(c2ccncn2)CC1
measurement_name: inhibition at 10 µM
test_result: 107
//
molecule: CCN(C(=O)c1ccccc1C)[C@@H]1CCc2ccc(C(=O)N(C)C3CCN(c4cc(C)nc(C)n4)CC3)cc21
measurement_name: inhibition at 10 µM
test_result: 106
//
molecule: CN(C(=O)c1ccc2c(c1)[C@H](NC(=O)c1ccccc1Cl)CC2)C1CCCN(c2ccncc2)CC1 (stereo partly shown)
measurement_name: inhibition at 10 µM
test_result: 103
//
molecule: Cc1cc(N2CCC(N(C)C(=O)c3ccc4c(c3)[C@H](NC(=O)c3cccnc3C(F)(F)F)CC4)CC2)ccn1
measurement_name: inhibition at 10 µM
test_result: 106
//
molecule: CC(C)N(C(=O)c1ccc2c(c1)[C@H](NC(=O)c1ccccc1Cl)CC2)C1CCN(c2ccncc2)CC1
measurement_name: inhibition at 10 µM
test_result: 101
//
molecule: Cc1cc(N2CCC(N(C)C(=O)c3ccc4c(c3)[C@H](NC(=O)c3cccc(C(F)(F)F)c3Cl)CC4)CC2)nc(C)n1
measurement_name: inhibition at 10 µM
test_result: 106
//
molecule: Cc1cc(N2CCC(CN(C)C(=O)c3ccc4c(c3)[C@H](NC(=O)c3ccccc3Cl)CC4)CC2)ccn1
measurement_name: inhibition at 10 µM
test_result: 101
//
molecule: CN1CCC(N2CCC(N(C)C(=O)c3ccc4c(c3)[C@H](NC(=O)c3ccccc3Cl)CC4)CC2)CC1
measurement_name: inhibition at 10 µM
test_result: 73
//
molecule: CN(C(=O)c1ccc2c(c1)[C@H](NC(=O)CC(F)(F)F)CC2)C1CCN(c2ccncc2)CC1
measurement_name: inhibition at 10 µM
test_result: 96

The reported measurements were obtained from patent US8680159B2.
